The reported measurements were obtained from paper PMC11211886.

- Assay Protocol: Tissue distribution in SD rats after oral dose
- Design: species or system SD rat
- Condition Context: female, Sprague-Dawley, rat, in vivo, po, 5 mg/kg, Cmax
- Method: After blood collection, the rats were sacrificed, and 18 tissues, namely, brain, breast, skin, fat, testis, ovary, bladder, pancreas, skeletal muscle, heart, lung, kidney, liver, stomach, small intestine, colon, spleen, and spinal cord, were removed from the rats at designated time points. These tissues were washed with saline and dried with filter paper. […] (Cheongju-si, Korea). […] The weight of the collected samples was recorded. Samples were stored in a −20°C freezer until analysis.
Assay Metric: Cmax (ng/g)
Report only the number, with the unit ng/g understood.

Input: // returns reported Cmax for input `C[C@H](Nc1ncnc(N)c1C#N)c1cc2ncc(Cl)n2nc1-c1ccccc1`
Output: 6950
